The origin of these recorded values is PubChem BioAssay (NCI).

tested on: NCI-H460 lung; assay: NCI tumour cell line growth inhibition, 48 h
Here the recorded TGI is given for each entry.

These recorded examples may help you get a feel for the data.
{"Compound": "O=C1N(c2ccc(Cl)cc2)C(=O)C2(SC=NN2Cc2ccccc2)N1c1ccc(Cl)cc1 (stereo unspecified)", "TGI": "> 100 µM"}
{"Compound": "COc1cc(F)c(F)c(Nc2ccc(I)cc2F)c1NS(=O)(=O)C1(CC(O)CO)CC1 (stereo unspecified)", "TGI": "33.2 µM"}
{"Compound": "CC1(C)OCC(/C=C\\C(O)CC2(C)OCCO2)CO1 (stereo unspecified)", "TGI": "> 100 µM"}
{"Compound": "ClC/C=C/CSc1ncnc2nc[nH]c12", "TGI": "> 100 µM"}
{"Compound": "CSCSCC(CO)NC(=O)/C=C/c1c(C)[nH]c(=O)[nH]c1=O (stereo unspecified)", "TGI": "> 100 µM"}
{"Compound": "COc1ccc2c(Cl)cc(NC(=S)Nc3ccccc3)nc2c1", "TGI": "> 100 µM"}
{"Compound": "COC(OC)c1cccc2c1C(=O)CCC1(CC2)OCCCCO1", "TGI": "> 100 µM"}
{"Compound": "CC/C(CC(=O)CCC(=O)Nc1ccc(C)c(C)c1)=N\\NC(=O)c1cc2ccccc2cc1O", "TGI": "> 100 µM"}
{"Compound": "CC(=O)O[C@H]1CSC[C@@H](OC(C)=O)C1[N+](=O)[O-] (stereo partly specified)", "TGI": "> 100 µM"}
{"Compound": "N#Cc1ccc2c(-c3ccnc(NC4CC4)n3)c(-c3ccc(F)cc3)nn2c1", "TGI": "> 25 µM"}

Retrieve TGI on NCI-H460 lung; query O=C(OC1C#CCSCC#C/C=C\1)c1ccc2c(c1)C(=O)c1ccccc1C2=O (stereo unspecified) > 100 µM

Retrieve TGI on NCI-H460 lung; query C=C(C)[C@@H]1CC[C@]2(C(=O)O)CC[C@]3(C)[C@H](CC[C@@H]4[C@@]5(C)CCC(N)C(C)(C)[C@@H]5CC[C@]43C)[C@@H]12 (stereo partly specified) > 100 µM

Retrieve TGI on NCI-H460 lung; query CC[C@@]1(O)C(=O)OCc2c1cc1n(c2=O)Cc2c-1nc1ccc(N)cc1c2CC[Si](C)(C)C < 0.013 µM

Retrieve TGI on NCI-H460 lung; query Cc1nc2nnc(CCCCCCCCc3nnc4nc(C)[nH]n34)n2[nH]1 > 100 µM
